Endpoint: MIC. System: Bacteroides fragilis GM 7000. Items follow.
Report the figure in µg/mL without appending any unit label.

Entry CN1CCN(c2c(F)cc3c(=O)c(C(=O)O)cn(C4CC4)c3c2F)CC1 [Reference- 2, reference compound] ; MIC = 0.78

Recorded MIC (compound O=C(O)c1cn(C2CC2)c2c(Cl)c(N3CCNCC3)c(F)cc2c1=O ): 0.39

Field MIC (entry O=C(O)c1cn(C2CC2)c2c(F)c(N3CCNCC3)c(F)cc2c1=O [Reference- 1, reference compound] ) reads 1.56

Short answer for CN1CCN(c2c(F)cc3c(=O)c(C(=O)O)cn(C4CC4)c3c2Cl)CC1 : MIC was 0.2

---

MEASURED METRIC: MIC
Could you write the number and then its unit?

# lookup: CN1CCN(c2c(F)cc3c(=O)c(C(=O)O)cn(C4CC4)c3c2Cl)CC1 on Acinetobacter anitratus IID 876, MIC = 0.025 µg/mL

Tested system Acinetobacter anitratus IID 876; MIC recorded for O=C(O)c1cn(C2CC2)c2c(F)c(N3CCNCC3)c(F)cc2c1=O [Reference- 1, reference compound] was 0.0125 µg/mL

O=C(O)c1cn(C2CC2)c2c(Cl)c(N3CCNCC3)c(F)cc2c1=O tested on Acinetobacter anitratus IID 876 gave MIC: 0.05 µg/mL

Sample CN1CCN(c2c(F)cc3c(=O)c(C(=O)O)cn(C4CC4)c3c2F)CC1 [Reference- 2, reference compound] , system: Acinetobacter anitratus IID 876. Its MIC is 0.0125 µg/mL

---

System: Streptococcus pyogenes IID 692
Experiment: Antibacterial spectra, MIC by standard method of Japan Society of Chemotherapy
Assay type: cell-based
Conditions: IID692, Gram +, 10^6 cells/ml, read-out: Minimum Inhibitory Concentration
MEASURED METRIC: MIC (µg/mL)
Give your result in µg/mL as a bare value.

For this molecule ( O=C(O)c1cn(C2CC2)c2c(F)c(N3CCNCC3)c(F)cc2c1=O [Reference- 1, reference compound] ), measured MIC is 0.78

The molecule listed as CN1CCN(c2c(F)cc3c(=O)c(C(=O)O)cn(C4CC4)c3c2F)CC1 [Reference- 2, reference compound] shows MIC equal to 0.78

Just so you know, measured MIC for O=C(O)c1cn(C2CC2)c2c(Cl)c(N3CCNCC3)c(F)cc2c1=O came out at 0.39

Memo: CN1CCN(c2c(F)cc3c(=O)c(C(=O)O)cn(C4CC4)c3c2Cl)CC1 , reported MIC: 0.2

---

Please provide measured MIC for the entries that follow.
// return numeric value only (unit: µg/mL, not printed)

Reported Bacteroides fragilis 0558 MIC for item O=C(O)c1cn(C2CC2)c2c(Cl)c(N3CCNCC3)c(F)cc2c1=O was 0.2

Item: CN1CCN(c2c(F)cc3c(=O)c(C(=O)O)cn(C4CC4)c3c2Cl)CC1 | System: Bacteroides fragilis 0558 | MIC: 0.1

The molecule CN1CCN(c2c(F)cc3c(=O)c(C(=O)O)cn(C4CC4)c3c2F)CC1 [Reference- 2, reference compound] , when measured on Bacteroides fragilis 0558, yielded MIC of 0.39

Entry O=C(O)c1cn(C2CC2)c2c(F)c(N3CCNCC3)c(F)cc2c1=O [Reference- 1, reference compound] , Bacteroides fragilis 0558 data, MIC value: 0.78

---

System: P. mirabilis IID 994
Experiment: Antibacterial spectra, MIC by standard method of Japan Society of Chemotherapy
Type: cell-based
Conditions: Gram −, 10^6 cells/ml
MEASURED METRIC: ratio of activity per that of Ciprofloxacin (bracketed number)
Provide a numeric answer; units are not to be included.

ratio of activity per that of Ciprofloxacin (bracketed number) in this record for CN1CCN(c2c(F)cc3c(=O)c(C(=O)O)cn(C4CC4)c3c2F)CC1 [Reference- 2, reference compound] : 0.5

# compound CN1CCN(c2c(F)cc3c(=O)c(C(=O)O)cn(C4CC4)c3c2Cl)CC1 ; its ratio of activity per that of Ciprofloxacin (bracketed number) = 0.5

O=C(O)c1cn(C2CC2)c2c(F)c(N3CCNCC3)c(F)cc2c1=O [Reference- 1, reference compound] yielded ratio of activity per that of Ciprofloxacin (bracketed number) of 2

Noted for O=C(O)c1cn(C2CC2)c2c(Cl)c(N3CCNCC3)c(F)cc2c1=O : its ratio of activity per that of Ciprofloxacin (bracketed number) reads 1

---

MEASURED METRIC: MIC (µg/mL)
Respond with the bare value in µg/mL.

Form: item CN1CCN(c2c(F)cc3c(=O)c(C(=O)O)cn(C4CC4)c3c2Cl)CC1 ; test system S. aureus IID 670 (Terajima); MIC: 0.1

# lookup: O=C(O)c1cn(C2CC2)c2c(Cl)c(N3CCNCC3)c(F)cc2c1=O on S. aureus IID 670 (Terajima), MIC = 0.1

Log: S. aureus IID 670 (Terajima), compound O=C(O)c1cn(C2CC2)c2c(F)c(N3CCNCC3)c(F)cc2c1=O [Reference- 1, reference compound] , MIC = 0.2

Bench note, S. aureus IID 670 (Terajima): entry CN1CCN(c2c(F)cc3c(=O)c(C(=O)O)cn(C4CC4)c3c2F)CC1 [Reference- 2, reference compound] , its MIC = 0.2

---

Provide the recorded MIC for the entries that follow.
Test system: Pseudomonas aeruginosa IFO 12689
Assay: Antibacterial spectra, MIC by standard method of Japan Society of Chemotherapy
Type: cell-based
Details: IFO12689, Gram −, 10^6 cells/ml, read-out: Minimum Inhibitory Concentration
Hi! Could you send only the number? It should be in µg/mL, unit omitted.

Record CN1CCN(c2c(F)cc3c(=O)c(C(=O)O)cn(C4CC4)c3c2Cl)CC1 , field MIC: 1.56

What the record says about CN1CCN(c2c(F)cc3c(=O)c(C(=O)O)cn(C4CC4)c3c2F)CC1 [Reference- 2, reference compound] : MIC is 0.39

Quick note, MIC for O=C(O)c1cn(C2CC2)c2c(F)c(N3CCNCC3)c(F)cc2c1=O [Reference- 1, reference compound] landed at 0.39

Consider O=C(O)c1cn(C2CC2)c2c(Cl)c(N3CCNCC3)c(F)cc2c1=O . Its measured MIC is 0.39

---

MEASURED METRIC: MIC (µg/mL)
Answer format: numeric, µg/mL implied, no suffix.

Bench note, Citrobacter freundii IID 976: entry CN1CCN(c2c(F)cc3c(=O)c(C(=O)O)cn(C4CC4)c3c2F)CC1 [Reference- 2, reference compound] , its MIC = 0.025

# MIC measured on Citrobacter freundii IID 976 for item O=C(O)c1cn(C2CC2)c2c(F)c(N3CCNCC3)c(F)cc2c1=O [Reference- 1, reference compound] = 0.0125

Test item O=C(O)c1cn(C2CC2)c2c(Cl)c(N3CCNCC3)c(F)cc2c1=O ; Citrobacter freundii IID 976; reported MIC was 0.0125

Readout MIC for CN1CCN(c2c(F)cc3c(=O)c(C(=O)O)cn(C4CC4)c3c2Cl)CC1 , test system Citrobacter freundii IID 976, was 0.025

---

MEASURED METRIC: MIC (µg/mL)
Please state the figure in µg/mL; there is no need to write the unit.

Summary line: CN1CCN(c2c(F)cc3c(=O)c(C(=O)O)cn(C4CC4)c3c2Cl)CC1 [Example 27] , S. epidermidis IID 866, reported MIC = 0.1

Value sought: MIC, system S. epidermidis IID 866, item O=C(O)c1cn(C2CC2)c2c(Cl)c(N3CCNCC3)c(F)cc2c1=O [Example 25] . Result: 0.05

Sample O=C(O)c1cn(C2CC2)c2c(F)c(N3CCNCC3)c(F)cc2c1=O [Reference- 1, reference compound] , system: S. epidermidis IID 866. Its MIC is 0.2

Tested system S. epidermidis IID 866; MIC recorded for CN1CCN(c2c(F)cc3c(=O)c(C(=O)O)cn(C4CC4)c3c2F)CC1 [Reference- 2, reference compound] was 0.2
